- Test target: T1, human TIGIT on Jurkat cells (TIGIT/NFAT reporter Jurkat cells, BPS Bioscience #60538); Promega TIGIT Effector … (human, UniProt Q495A1 22-244)
- T1 construct: whole, on cells; Same protein on two bought Jurkat lines (flow cytometry: BPS; bioassay: Promega); also called hu TIGIT cells; cells expressing human TIGIT
- T1 sequence (looked up): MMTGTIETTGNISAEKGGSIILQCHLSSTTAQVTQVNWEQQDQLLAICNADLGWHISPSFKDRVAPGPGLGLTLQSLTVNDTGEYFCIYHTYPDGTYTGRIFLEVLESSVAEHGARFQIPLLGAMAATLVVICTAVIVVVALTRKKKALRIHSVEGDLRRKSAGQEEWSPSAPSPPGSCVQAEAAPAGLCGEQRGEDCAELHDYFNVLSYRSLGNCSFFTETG
- Method notes: flow cytometry, TIGIT/NFAT Jurkat cells, 10 ug/ml
Property label: MFI (MFI)
Report as a plain number; the unit MFI is understood.

Look at this binder and give its reported MFI. 43586p1.2.G10 (scFv, V domains shown) VH: EVQLLESGGGLVQPGGSLRLSCAASGFTFDDYVMSWVRQAPGKELEWVSLINWNGDKTCYADSVKGRFTISRDNSKNTLYLQMNSLRAEDTAIYYCAKHWIVFQYGMDVWGQGTTVTVSS VL: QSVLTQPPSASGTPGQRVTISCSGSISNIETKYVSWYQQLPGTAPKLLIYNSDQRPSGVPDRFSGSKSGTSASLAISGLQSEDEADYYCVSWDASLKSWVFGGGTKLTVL 10100

Which MFI is reported for this binder? 43645p1.F11 (scFv, V domains shown) VH: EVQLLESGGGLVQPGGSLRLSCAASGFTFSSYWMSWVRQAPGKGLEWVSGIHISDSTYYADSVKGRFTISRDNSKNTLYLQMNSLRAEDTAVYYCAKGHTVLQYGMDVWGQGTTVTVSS VL: QSGLTQPPSASGTPGQRVTISCSGDISNTRNNYVSWYQQLPGTAPKLLIYRNSQRPSGVPDRFSGSKSATSASLAISGLQSEDEADYYCGTWDNTLNAWVFGGGTKLTVL 10900

Recorded MFI of 43645p1.D3 (scFv, V domains shown) VH: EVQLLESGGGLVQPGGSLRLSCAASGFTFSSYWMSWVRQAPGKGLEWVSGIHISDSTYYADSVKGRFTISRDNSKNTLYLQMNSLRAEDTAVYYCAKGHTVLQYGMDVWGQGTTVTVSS VL: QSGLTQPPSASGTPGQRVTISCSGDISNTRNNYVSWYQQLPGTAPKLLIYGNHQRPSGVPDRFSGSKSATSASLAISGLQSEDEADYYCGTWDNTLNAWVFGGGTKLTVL , please. 9350

Which MFI value belongs to 43586p1.2.C5 (scFv, V domains shown) VH: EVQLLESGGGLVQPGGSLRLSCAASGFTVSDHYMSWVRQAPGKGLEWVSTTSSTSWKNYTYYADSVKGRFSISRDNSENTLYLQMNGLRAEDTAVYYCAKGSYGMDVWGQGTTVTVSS VL: QSVLTQPPSASGTPGQRVTISCSGSNFNIGTKYLYWYQQLPGTAPKLLIYLDSQRPSGVPDRFSTSKPGTSASLAISGLQSEDEADYYCALWDDHLHGWVFGGGTKLTVL ? 10700

// returns reported MFI for input 43586p1.2.B8 (scFv, V domains shown) VH: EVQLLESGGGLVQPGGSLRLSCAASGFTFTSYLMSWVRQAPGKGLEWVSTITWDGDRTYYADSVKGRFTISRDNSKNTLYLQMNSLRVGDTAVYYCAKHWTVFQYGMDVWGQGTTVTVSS VL: QSVLTQPASASGTPGQRVTITCSGTISNIETKYVSWYQQLPGTAPKLLIYGNHQRPSGVPDRFSGSKSGTSASLAISGLQSEDEADYYCASWENDLKSWVFGGGTKLTVL 9470

Entry 43586p1.2.C11 (scFv, V domains shown) VH: EVQLLESGGGLVQPGGSLRLSCAASGFTFDDYVMSWVRQAPGKGLEWVSLINWNGDKTYCADSVKGRFTISRDNSKNTLYLQMNSLRAEDTAIYYCAKHWIVFQYGMDVWGQGTTVTVSS VL: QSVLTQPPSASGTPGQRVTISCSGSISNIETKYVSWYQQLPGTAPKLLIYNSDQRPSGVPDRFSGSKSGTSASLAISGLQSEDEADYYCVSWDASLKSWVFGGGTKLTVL has what MFI? 9550

Which MFI is reported for this binder? 43586p1.2.G4 (scFv, V domains shown) VH: EVQLLESGGGLVQPGGSLRLSCAASGFTFDDYVMSWVRQAPGKGLEWVSLINWNGDKTYYADSVKGRFTISRDNSKNTLYLQMNSLRAEDTAVYYCARHWIVFQYGLDVWGQGTTVTVSS VL: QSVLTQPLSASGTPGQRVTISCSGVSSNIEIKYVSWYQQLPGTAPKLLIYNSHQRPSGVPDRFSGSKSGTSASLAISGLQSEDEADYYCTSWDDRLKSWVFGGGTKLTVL 9340

GET /values?readout=MFI&item= 43586p2.D05 (scFv, V domains shown) VH: EVQLLESGGGLVQPGGSLRLSCAASGFTFDDYVMSWVRQAPGKGLEWVSLINWNGDKTYYADSVKGRFTISRDNSKNTLYLQMNSLRAEDTAVYYCARHWIVFQYGLDIWGQGTTVTVSS VL: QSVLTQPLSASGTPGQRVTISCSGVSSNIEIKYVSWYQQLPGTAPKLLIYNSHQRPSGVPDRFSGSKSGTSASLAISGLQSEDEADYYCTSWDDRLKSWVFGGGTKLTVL 9960

Item 43352p1.H8 (scFv, V domains shown) VH: DVQLVESGGGVVRPGESLRLSCAASGFNFSTYAMNWVRQAPGEGLEWVSGISGRSSGDTTYYADSVRGWFTVSRDNSKNTLYLQMSSLRAEDTAVYYCARETWIRGYFDYWGLGTLVTVSS VL: QSVLTQPPSASGTPGQRVTISCSGSRSNLGNNLVYWYQQLPGTAPKLLIYFNNERPSGVPDRFSGSKSGTSASLAISGVQSEDEADYYCATWDDSLNGWVFGGGTKLTVL has what recorded MFI? 10300

# MFI lookup, item 43586p2.D06 (scFv, V domains shown) VH: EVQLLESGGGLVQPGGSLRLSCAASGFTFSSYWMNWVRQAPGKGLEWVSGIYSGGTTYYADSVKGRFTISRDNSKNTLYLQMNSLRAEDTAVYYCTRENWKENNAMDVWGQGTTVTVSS VL: QSVLTQPPSASGTPGQRVTISCSGVTSNIASYHVYWYQQLPGTAPKLLIYLNSQRPSGVPDRFSASKSGTSASLAISGLQSEDEADYYCATWDGSLNGWVFGGGTKLTVL 15400
